Would you mind telling me the reported IC50 of each entry?
- Test system: HIF2α-dependent transcription in 786-O-HRE-Luc cells
- protocol-details: In vitro cellular hypoxia response element (HRE) reporter gene assay (RGA) for HIF2α
- Assay type: cell-based, human
- test-context: Homo sapiens, 24 hours incubation

Answered examples (3):
| compound | system-tested | IC50 |
| --- | --- | --- |
| FC(F)OC1=CC(C(F)(F)F)=CN2C[C@@]3(CCOc4cc(C(F)(F)F)ccc43)N=C12 [Example 44] | HIF2α-dependent transcription in 786-O-HRE-Luc cells | 112 nM |
| N#Cc1ccc2c(c1)CCC[C@@]21CN2C=C(C(F)(F)F)C=C(OC(F)F)C2=N1 [Example 38] | HIF2α-dependent transcription in 786-O-HRE-Luc cells | 322 nM |
| O[C@H]1c2c(ccc(Br)c2F)[C@]2(CN3C=C(C(F)(F)F)C=C(OC(F)F)C3=N2)CC1(F)F [Example 18] | HIF2α-dependent transcription in 786-O-HRE-Luc cells | 92 nM |

For every item below, please supply its IC50.
1. FC(F)OC1=CC(C(F)(F)F)=CN2C[C@@]3(CCc4cc(C(F)(F)F)ncc43)N=C12 [Example 3]
2. FC(F)OC1=CC(C(F)(F)F)=CN2C[C@@]3(N=C12)c1ccc(I)cc1OC[C@@H]3F [Example 60]
3. N#CC1=CN2C[C@@]3(CCCc4c3ccnc4Cl)N=C2C(OC(F)F)=C1 [Example 94]
4. FC(F)OC1=CC(C(F)(F)F)=CN2C[C@@]3(CCOc4c3ccnc4Cl)N=C12 [Example 56]
5. O[C@H]1c2c(ccc(Br)c2F)[C@@]2(C[C@H]1F)CN1C=C(C(F)(F)F)C=C(OC(F)F)C1=N2 [Example 10]

Output:
1. > 10000 nM
2. 65 nM
3. 2260 nM
4. 6660 nM
5. 207 nM

###

- System: HIF2α-dependent transcription in 786-O-HRE-Luc cells
- protocol-details: In vitro cellular hypoxia response element (HRE) reporter gene assay (RGA) for HIF2α
- Format: cell-based, human
- test-context: Homo sapiens, 24 hours incubation
measurement-kind: pIC50
Give bare numbers, as −log10 of the molar value.

Answered examples (7):
| smiles-data | pIC50 |
| --- | --- |
| Fc1c(Cl)ccc2c1OCC[C@@]21CN2C=C(C(F)(F)F)C=C(OC(F)F)C2=N1 | 6.74 |
| COc1ccc2c(c1F)CCC[C@@]21CN2C=C(C(F)(F)F)C=C(OC(F)F)C2=N1 | 6.74 |
| FC(F)OC1=CC(C(F)(F)F)=CN2C[C@@]3(CCCc4cc(C(F)(F)F)ccc43)N=C12 | 6.75 |
| FC(F)OC1=CC(C(F)(F)F)=CN2C[C@@]3(CCCc4ccccc43)N=C12 | 6.60 |
| Fc1cccc2c1OC[C@H](F)[C@@]21CN2C=C(C(F)(F)F)C=C(OC(F)F)C2=N1 | 6.32 |
| O=C1c2c(ccc(Br)c2F)[C@]2(CN3C=C(C(F)(F)F)C=C(OC(F)F)C3=N2)CC1(F)F | 6.33 |
| FC(F)OC1=CC(C(F)(F)F)=CN2C[C@@]3(CCc4cc(C(F)(F)F)ccc43)N=C12 | 6.60 |

// next entry
pIC50 in this record for FC(F)OC1=CC(C(F)(F)F)=CN2C[C@@]3(CCOc4c(Br)cccc43)N=C12 : 6.09

###

- System: HIF2α-dependent transcription in 786-O-HRE-Luc cells
- protocol-details: In vitro cellular hypoxia response element (HRE) reporter gene assay (RGA) for HIF2α
- Assay type: cell-based, human
- test-context: Homo sapiens, 24 hours incubation
Would you mind telling me the reported IC50 of each entry?
Numbers only, in nM.

Answered examples (5):
| compound | measurement-unit | IC50 |
| --- | --- | --- |
| N#CC1=CN2C[C@@]3(CCCc4c3ccc(Br)c4F)N=C2C(OC(F)F)=C1 [Example 13] | nM | 113 |
| FC(F)OC1=CC(C(F)(F)F)=CN2C[C@@]3(CCOc4cc(Cl)ccc43)N=C12 [Example 41] | nM | 283 |
| Fc1c(Br)ccc2c1OCC[C@@]21CN2C=C(Cl)C=C(OC(F)F)C2=N1 [Example 52] | nM | 416 |
| COC1=CC(C(F)(F)F)=CN2C[C@@]3(CCCc4c3ccc(Br)c4F)N=C12 [Example 80] | nM | 2040 |
| N#CC1=CN2C[C@@]3(CCCc4c(F)cccc43)N=C2C(OC(F)F)=C1 [Example 26] | nM | 144 |

For every item below, please supply its IC50.
1. N#CC1=CN2C[C@@]3(CCc4c3ccc(Br)c4F)N=C2C(OC(F)F)=C1 [Example 4]
2. N#Cc1ccc2c(c1Cl)OCC[C@@]21CN2C=C(C(F)(F)F)C=C(OC(F)F)C2=N1 [Example 96]
3. Fc1cccc2c1C(F)(F)CC[C@@]21CN2C=C(C(F)(F)F)C=C(OC(F)F)C2=N1 [Example 23]

Output:
1. 699
2. 518
3. 92

###

- system-tested: HIF2α PAS-B domain (236-350, biotinylated on the N-terminus) (Homo sapiens (Human), UniProt Q99814)
- Sequence (Q99814 236-350): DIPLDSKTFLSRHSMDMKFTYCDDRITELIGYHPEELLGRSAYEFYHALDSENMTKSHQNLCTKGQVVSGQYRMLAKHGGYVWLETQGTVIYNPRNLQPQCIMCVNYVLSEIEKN
Would you mind telling me the reported log10 of IC50 of each entry?
Kindly note that the scale is log10 and the underlying IC50 is in nM.

Answered examples (5):
| compound | measurement-kind | endpoint-result |
| --- | --- | --- |
| N#CC1=CN2C[C@@]3(CCCc4c3ccnc4Cl)N=C2C(OC(F)F)=C1 [Example 94] | log10 of IC50 | 1.52 |
| FC(F)OC1=CC(C(F)(F)F)=CN2C[C@@]3(CCCc4ccccc43)N=C12 [Example 12] | log10 of IC50 | 0.90 |
| N#Cc1ccc2c(c1Cl)OCC[C@@]21CN2C=C(C(F)(F)F)C=C(OC(F)F)C2=N1 [Example 96] | log10 of IC50 | 1.51 |
| Fc1cccc2c1OC[C@H](F)[C@@]21CN2C=C(C(F)(F)F)C=C(OC(F)F)C2=N1 [Example 62] | log10 of IC50 | 1.11 |
| COc1ccc2c(c1F)CCC[C@@]21CN2C=C(C(F)(F)F)C=C(F)C2=N1 [Example 76] | log10 of IC50 | 1.69 |

For every item below, please supply its log10 of IC50.
1. N#CC1=CN2C[C@@]3(CCc4c3ccc(Br)c4F)N=C2C(OC(F)F)=C1 [Example 4]
2. FC(F)OC1=CC(C(F)(F)F)=CN2C[C@@]3(CCCc4cc(Cl)ncc43)N=C12 [Example 37]
3. O=C1CC[C@@]2(CN3C=C(C(F)(F)F)C=C(OC(F)F)C3=N2)c2ccc(Br)cc21 [Example 90]
4. N#CC1=CN2C[C@@]3(CCSc4c3ccc(F)c4F)N=C2C(OC(F)F)=C1 [Example 112]
5. FCOC1=CC(C(F)(F)F)=CN2C[C@@]3(CCOc4c3ccc(Br)c4F)N=C12 [Example 42]

Output:
0.95
1.40
1.00
0.85
0.90

For every item below, please supply its log10 of IC50.
1. FC(F)OC1=CC(C(F)(F)F)=CN2C[C@@]3(CCOc4c3ccc(Br)c4Cl)N=C12 [Example 100]
2. Fc1c(OC(F)F)ccc2c1OCC[C@@]21CN2C=C(C(F)(F)F)C=C(OC(F)F)C2=N1 [Example 54]
3. FC(F)OC1=CC(C(F)(F)F)=CN2C[C@@]3(CCc4cc(Br)ccc43)N=C12 [Example 72]
4. N#CC1=CN2C[C@@]3(CCCc4c3ccc(Br)c4F)N=C2C(OC(F)F)=C1 [Example 13]
5. FCOC1=CC(C(F)(F)F)=CN2C[C@@]3(CCOc4c(Cl)cccc43)N=C12 [Example 95]
6. FC(F)OC1=CC(C(F)(F)F)=CN2C[C@@]3(CCOc4c3ccc(Br)c4Br)N=C12 [Example 102]
7. FC(F)OC1=CC(C(F)(F)F)=CN2C[C@@]3(CCOc4c(C(F)F)cccc43)N=C12 [Example 55]

Output:
0.60
1.52
0.85
0.70
1.36
1.04
0.95

For every item below, please supply its log10 of IC50.
1. N#Cc1ccc2c(c1F)[C@@H](F)CC[C@@]21CN2C=C(C(F)(F)F)C=C(OC(F)F)C2=N1 [Example 25]
2. Fc1ccc2c(c1)CSC[C@@]21CN2C=C(C(F)(F)F)C=C(OC(F)F)C2=N1 [Example 116]
3. FC(F)OC1=CC(C(F)(F)F)=CN2C[C@@]3(CCCc4cc(C(F)(F)F)ccc43)N=C12 [Example 86]
4. FC(F)OC1=CC(C(F)(F)F)=CN2C[C@@]3(CCOc4c3ccnc4Cl)N=C12 [Example 56]

Output:
1. 1.28
2. 0.78
3. 1.11
4. 1.11
